- test.details: Kinetic constant for the SerL91Val (germline)
- Assay type: ADME
measurement.label: Km
Report field: quantity (unit follows the number).

# structure.as.smiles, Km
rows = [
    ("CC(=O)Nc1ccc(N2C(=O)C=CC2=O)cc1", "740 µM"),
]

Req: // lookup Km for C=C/C=C/NC(=O)OCC(=O)O
Resp: 1200 µM

Values from ChEMBL document CHEMBL1131759
